Reported melting point by item:
Reported property: melting point

structure_string=COC(=O)c1cccc(S(=O)(=O)N2CCC(N3N=C(c4ccc(OC)c(OC)c4)C(C)(C)C3=O)CC2)c1 observed_measurement="214 °C"
structure_string=CC(=O)NCc1cccc(Nc2nccc(-c3sc(-c4ncc(C(F)(F)F)cc4Cl)nc3C)n2)c1 observed_measurement="217 to 218 °C"
structure_string=CC(=O)c1cc(CO)c(O)cc1O observed_measurement="151 to 152 °C"
structure_string=Oc1cnn(-c2ccc(Cl)cc2Cl)c1 observed_measurement="148 to 149 °C"
structure_string=CCCCCCc1ccc(-c2ncc(C#N)c(Cl)n2)cc1 observed_measurement="80.3 to 80.5 °C"
structure_string=CC(=O)Nc1nc2ccnc(-c3cccc(NS(=O)(=O)c4ccc(C)cc4)c3)n2n1 observed_measurement="208 to 211 °C"
structure_string=CC(C)c1cccc(C(C)C)c1NC(=O)NCC1(SCc2ccccc2)CCCCC1 observed_measurement="156 °C"
structure_string=CCCn1c2c(c3c4c(-c5ccccc5)csc4ccc31)CN(C)CC2 observed_measurement="156 °C"
structure_string=CC(=O)CSc1ncc(C)n1C observed_measurement="65 to 67 °C"
structure_string=O=C(NCCCCCCCCCCCCNC(=O)c1ccc(OC(F)(F)F)cc1)c1ccc(OC(F)(F)F)cc1 observed_measurement="158 to 159 °C"
structure_string=COc1ccccc1CC(=O)c1ccc(C(C)C)c(OS(N)(=O)=O)c1C(C)C observed_measurement="159 to 161 °C"
structure_string=COc1cc(C(=O)Cc2ccccc2)ccc1O observed_measurement="107 to 108 °C"
structure_string=c1cc(-c2ccc3c(c2)OCO3)cc(Nc2ccc3c(c2)OCCO3)n1 observed_measurement="116 to 118 °C"
